Form field: IC50 (one value per entry).
assay: Cytotoxicity against human BC1 cells by colorimetric method
Assay type: functional, cell-based

Examples with their reported IC50 follow.
compound	data_value
CCCC(=O)CC/C=C/[C@H](O)[C@@H]1O[C@H]1CO	> 30.3 µM
CS[C@@]12CC3=CC=C[C@H](O)[C@H]3N1C(=O)[C@]1(SC)CC3=COC=C[C@H](O)[C@H]3N1C2=O	> 46 µM
CC(O)CCC/C=C/C(O)C(O)/C=C/c1c(CC(O)C(C)(C)O)ccc(O)c1C=O (centres undefined)	> 47.3 µM
C/C=C/C(C=O)=C\C=C\C(O)C(O)[C@@H]1O[C@H]1CO (relative stereo)	> 78.7 µM
O=C1c2c(O)cccc2[C@H](O)[C@H](O)[C@H]1O	> 95.2 µM
C/C=C(\C)C(=O)C(C)C(O)C(C)C(=O)O[C@H]1C=COC=C2C[C@@]3(SC)C(=O)N4[C@H]5C(=CC=C[C@@H]5O)[C@@H](O)[C@@]4(SC)C(=O)N3[C@@H]21 (some centres undefined)	29.2 µM

Record summary for C/C=C(\C)C(=O)C(C)C(O)C(C)C(=O)O[C@H]1C=COC=C2C[C@@]3(SC)C(=O)N4c5c(O)cccc5[C@@H](O)[C@@]4(SC)C(=O)N3[C@@H]21 (some centres undefined) : reported IC50 = > 31 µM

Record summary for CCCCC/C=C/C(O)C(O)/C=C/c1c(CC(O)C(C)(C)O)ccc(O)c1CO (centres undefined) : reported IC50 = > 49 µM

Record summary for Cc1c2ccncc2c(C)c2c1[nH]c1ccccc12 : reported IC50 = 5.93 µM
